# Tested on: MS2 coat protein
# TEST_NAME: apparent Kd, MS2 coat protein; higher = weaker binding; RNA-MaP array
# MEASUREMENT_SETUP: ligand present: theophylline; designed as: OFF switch for theophylline
Exercise: for every item that follows, state its recorded apparent Kd.
Answer with the value and then the unit.

Request: Provide measured apparent Kd value, entry: CGAUACAAAUAAAGCGUUCGUCCGCCAGAUACCAGAUUCAUUUCCAUCCCUUGGCAGCUGUCGACAUGAGGAUCACCCAUGUUUG
Response: 20.9 nM

Request: Provide measured apparent Kd value, entry: AGAAGUCCAGACUACACGUGGAAAAGCGAUACCAGACUCAUAGGUGUCCCUUGGCAGCGCGUAACAUGAGGAUCACCCAUGUGAU
Response: 139 nM

Request: Provide measured apparent Kd value, entry: CGACACCAGGCAAUCCAUCACCCGGCUGAUACCAGCUCUUUUGGAAGCCCUUGGCAGCAGAGAACAUGAGGAUCACCCAUGUCAG
Response: 21.2 nM

Request: Provide measured apparent Kd value, entry: GCACGAGUAAGACCUGACUUCAACAAUGAUACCAGACUAGUAAACGUCCCUUGGCAGCAUCAGACAUGAGGAUCACCCAUGUGGC
Response: 29.4 nM
